From: patent US7273848B2

Molecular target: LCAT (purified from human plasma) (Homo sapiens)
Construct: from tissue; host or cells: human plasma
Sequence (P04180 25-440): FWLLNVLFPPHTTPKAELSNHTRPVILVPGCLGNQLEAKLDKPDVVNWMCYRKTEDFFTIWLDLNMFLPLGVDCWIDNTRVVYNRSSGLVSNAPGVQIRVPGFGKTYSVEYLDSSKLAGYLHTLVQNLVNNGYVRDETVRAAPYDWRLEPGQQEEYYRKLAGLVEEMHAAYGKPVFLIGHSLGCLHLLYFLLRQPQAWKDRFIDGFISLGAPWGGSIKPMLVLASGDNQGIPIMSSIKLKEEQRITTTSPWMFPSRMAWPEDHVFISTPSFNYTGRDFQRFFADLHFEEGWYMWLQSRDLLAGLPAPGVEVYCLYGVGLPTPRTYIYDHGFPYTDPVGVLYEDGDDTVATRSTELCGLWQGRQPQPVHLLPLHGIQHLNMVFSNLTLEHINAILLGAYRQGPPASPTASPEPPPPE
Experiment: LCAT activation assay
Assay type: biochemical
Conditions: LCAT activation as compared with native human ApoA-I (= 100%), equivalent masses
No end group written: not given here.
Note: every record was labeled by where its ACTIVITY (%) LCAT sits among band A: < 30%; band B: ≥ 30% and < 70%; band C: ≥ 70%

Query :: For the record PVLELWENLLERLLDALQKKLK [compound 176] , report the class its ACTIVITY (%) LCAT corresponds to.
Result :: band A

Query :: For the record VLDLFRELLNELLEALKQKLK [compound 67] , report the class its ACTIVITY (%) LCAT corresponds to.
Result :: band A

Query :: For the record Ac-GVLDLFRELLEELKQKLK-NH2 [compound 198] , report the class its ACTIVITY (%) LCAT corresponds to.
Result :: band C

Query :: For the record PVLELFKELLEELKQKLK [compound 216] , report the class its ACTIVITY (%) LCAT corresponds to.
Result :: band B

Query :: For the record Ac-PVLDLFRELWEELKQKLK-NH2 [compound 199] , report the class its ACTIVITY (%) LCAT corresponds to.
Result :: band C

Query :: For the record Ac-PVLDLFKELLEELKQKLK-NH2 [compound 192] , report the class its ACTIVITY (%) LCAT corresponds to.
Result :: band C

Query :: For the record PVLDLFRELLEELKQKLK [compound 210] , report the class its ACTIVITY (%) LCAT corresponds to.
Result :: band B

Query :: For the record PVLELFENLLERLLDWLQKKLK [compound 160] , report the class its ACTIVITY (%) LCAT corresponds to.
Result :: band A

Query :: For the record PVLDLFRELLEELLKALKKKLK [compound 39] , report the class its ACTIVITY (%) LCAT corresponds to.
Result :: band A

Query :: For the record PVLDLFRELWNELLEALKQKLK [peptide 15] , report the class its ACTIVITY (%) LCAT corresponds to.
Result :: band B

###

Exercise: state measured He (%) free for each of the substances provided.
Experiment: Circular dichroism helicity determination
Format: physicochemical
Settings: percent helicity; free, unbound peptide 5 μM in 5 mM phosphate buffer, pH 7.4, 37° C.
Protocol: Far UV circular dichroism spectra were recorded between 190 and 260 nm (in 0.5 nm or 0.2 nm increments) with a AVIV62DS spectrometer (AVIV Associates, Lakewood, N.J., USA) equipped with a thermoelectric cell holder and sample changer. The instrument was calibrated with (+)-10-camphoric acid. […] All spectra were recorded at 37° C. […]
No end group written: not given here.
Kindly answer with a numeric value in %, unit omitted.

Query :: Fill in: He (%) free of PVLELFENLLERLLDAWQKKLK [compound 164] is ___
Result :: 37

Query :: Fill in: He (%) free of PLLNELLEALKQKLK [compound 104] is ___
Result :: 21

Query :: Fill in: He (%) free of PVLDLFRELLNELWEALKQKLK [compound 28] is ___
Result :: 82

Query :: Fill in: He (%) free of Ac-PVLDEFREKLNEELEALKQKLK-NH2 [peptide 75, reference compound] is ___
Result :: 18

Query :: Fill in: He (%) free of PVLELFENWLERLLDALQKKLK [compound 162] is ___
Result :: 68

Query :: Fill in: He (%) free of PVLDLFRNLLEKLLEALEQKLK [compound 49] is ___
Result :: 57

Query :: Fill in: He (%) free of PVLDLFRELLEELQKKLK [compound 220] is ___
Result :: 27

Query :: Fill in: He (%) free of PLLELLKELLQELLEALKQKLK [compound 36] is ___
Result :: 95

Query :: Fill in: He (%) free of PVLDEFREKLNEPLEALKQKLK [compound 113] is ___
Result :: 6

Query :: Fill in: He (%) free of PVLDWFRELLNELLEALKQKLK [compound 35] is ___
Result :: 49

Query :: Fill in: He (%) free of PVLELFENLWERLLDALQKKLK [peptide 149] is ___
Result :: 28

Query :: Fill in: He (%) free of PVLDLFRELLEELKQKLK [compound 210] is ___
Result :: 20
